Data origin: patent US9615577B2

Test system: Abutilon theophasti Medik. (ABUTH)
ASSAY_DETAILS: Test 1A glasshouse assay for herbicidal activity, post-emergence
Type: in vivo
TEST_PARAMETERS: 312 h, 250 g/ha, evaluated after 13 days, read-out: percentage phytotoxicity ABUTH
REPORTED_METRIC: pest or weed control at 250 g/ha
Express the reported value numerically, then name its unit.

Example entries and their recorded answers appear below.
CC#Cc1cc(C)c(C2C(=O)C3CCC(C3)C2=O)c(OC)c1 (stereo not shown)    80%
C#Cc1cc(C)c(C2C(=O)CC(c3ccccn3)CC2=O)c(C)c1 (stereo not shown) [Compound X-4, reference compound]    80%
CC#Cc1cc(Cl)c(C2=C(OC(=O)C(C)(C)C)C3CCC(C3)C2=O)c(OC)c1 (stereo not shown)    70%

**Query** Endpoint output: pest or weed control at 250 g/ha of CC#Cc1cc(C)c(C2C(=O)CC(CC(C)SC)CC2=O)c(C)c1 (stereo not shown) . Value?
**Result** 60%

---

Tested on: Setaria faberi (SETFA)
ASSAY_DETAILS: Biological Example 2 comparative herbicidal data, post-emergence glasshouse screen
Type: in vivo
TEST_PARAMETERS: 312 h, 8 g/ha application rate, read-out: Post-emergence herbicidal activities (percentage phytotoxicity) SETFA
// reported pest or weed control at 8 g/ha per item
Write down the numeric answer in % and omit the unit.

Example entries and their recorded answers appear below.
CC#Cc1cc(Cl)c(C2C(=O)C3CCC(C3)C2=O)c(OC)c1 (stereo not shown)    50
CC#Cc1cc(C)c(C2C(=O)CC(CCSC)CC2=O)c(C)c1 (stereo not shown)    50
C#Cc1cc(Cl)c(C2C(=O)C3CCC(C3)C2=O)c(OC)c1 (stereo not shown)    20

**Query** Endpoint output: pest or weed control at 8 g/ha of COc1cc(C)cc(Cl)c1C1C(=O)C2CCC(C2)C1=O (stereo not shown) [Compound X-5, reference compound] . Value?
**Result** 20

---

Tested on: Alopecurus myosuroides (ALOMY)
ASSAY_DETAILS: Test 1A glasshouse assay for herbicidal activity, pre-emergence
Assay type: in vivo
TEST_PARAMETERS: 312 h, 250 g/ha, evaluated after 13 days, read-out: percentage phytotoxicity ALOMY
REPORTED_METRIC: pest or weed control at 250 g/ha (%)
Write down the numeric answer in % and omit the unit.

CC#Cc1cc(Cl)c(C2=C(OC(=O)C(C)(C)C)C3CCC(C3)C2=O)c(OC)c1 (stereo not drawn)    100
CC#Cc1cc(C)c(C2C(=O)C3CCC(C3)C2=O)c(OC)c1 (stereo not drawn)    100

# ---- query compound ----
**Query** Endpoint output: pest or weed control at 250 g/ha of CC#Cc1cc(C)c(C2C(=O)CC(c3ccccn3)CC2=O)c(C)c1 (stereo not drawn) . Value?
**Result** 100
